Sequence of the target: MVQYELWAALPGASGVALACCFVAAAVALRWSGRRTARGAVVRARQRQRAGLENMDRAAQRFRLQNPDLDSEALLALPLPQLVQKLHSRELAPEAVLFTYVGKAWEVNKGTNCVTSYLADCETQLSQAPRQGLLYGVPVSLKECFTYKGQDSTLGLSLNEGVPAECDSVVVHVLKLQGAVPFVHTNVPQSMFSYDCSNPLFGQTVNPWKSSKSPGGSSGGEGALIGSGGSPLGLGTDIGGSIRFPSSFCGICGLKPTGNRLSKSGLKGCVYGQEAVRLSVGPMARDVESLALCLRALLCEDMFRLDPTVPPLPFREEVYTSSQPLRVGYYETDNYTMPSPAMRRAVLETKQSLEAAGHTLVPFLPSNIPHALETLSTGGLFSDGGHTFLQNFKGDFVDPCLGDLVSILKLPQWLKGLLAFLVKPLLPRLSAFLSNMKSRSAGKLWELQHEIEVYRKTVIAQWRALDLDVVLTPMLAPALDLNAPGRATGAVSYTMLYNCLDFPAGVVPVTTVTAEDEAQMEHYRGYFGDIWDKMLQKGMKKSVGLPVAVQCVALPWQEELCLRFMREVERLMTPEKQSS
pKi: −log10 of the molar value.

compound_structure_string	pKi
O=C(CCCCCCc1cccc(Cl)c1Cl)c1ncc(-c2ccccn2)o1	8.92

This collection of values is drawn from ChEMBL document CHEMBL1145407.
